testTarget: T1, human Protein S (human, UniProt P07225 42-676)
T1 sequence: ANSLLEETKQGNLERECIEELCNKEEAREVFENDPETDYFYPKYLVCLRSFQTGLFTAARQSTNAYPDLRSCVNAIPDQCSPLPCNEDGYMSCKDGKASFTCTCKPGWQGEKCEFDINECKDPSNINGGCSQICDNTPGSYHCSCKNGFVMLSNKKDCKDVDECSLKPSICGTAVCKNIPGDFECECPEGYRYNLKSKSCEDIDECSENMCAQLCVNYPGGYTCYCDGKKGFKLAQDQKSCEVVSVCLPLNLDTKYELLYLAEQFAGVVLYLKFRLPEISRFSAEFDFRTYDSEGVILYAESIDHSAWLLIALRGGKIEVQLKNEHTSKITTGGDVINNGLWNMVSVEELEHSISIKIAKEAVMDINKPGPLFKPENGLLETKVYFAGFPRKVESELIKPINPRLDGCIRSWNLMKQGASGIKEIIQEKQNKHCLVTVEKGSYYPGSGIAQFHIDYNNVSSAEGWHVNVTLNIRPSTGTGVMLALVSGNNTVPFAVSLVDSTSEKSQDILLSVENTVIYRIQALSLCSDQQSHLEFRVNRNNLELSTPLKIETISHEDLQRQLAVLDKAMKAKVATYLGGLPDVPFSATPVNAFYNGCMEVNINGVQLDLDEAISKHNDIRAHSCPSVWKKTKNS
method: cell-based or functional assay
measurementKind: IC50 TFPI (nM)

>>> observedmeasurement("Antibody 16 (antibody, V domains shown, Human variable region with rat Fc) VH: QVQLVESGGGVVQPGRSLRLSCAASGFTFSTYGFHWVRQPPGKGLEWVAVIYYDGINKYYADSVKGRFTISRDNSKNTLFLQMNSLRAEDTAVYYCAESDLDYWGQGTLVTVSS VL: EIVLTQSPATLSLSPGERATLSCRASQSVSIYLAWYQQKPGQAPRLLIYDASNRATGIPARFSGSGSGTDFTLTISSLEPEDFAVYYCQQRSNWPLTFGPGTKVDIK")
46.3
